species on record: Mus musculus; experiment: Selectivity ratio of Ki for mouse delta opioid receptor to mouse mu receptor
metric name: Ratio Ki
One number for each entry.

Some entries whose results are on file:
smiles input: Oc1ccc2c(c1)[C@]13CCN(CC4CC4)[C@H](C2)[C@]1(O)CC[C@@]1(C3)O[C@H]2CO[C@@H]3N2[C@H]1O[C@]31CC[C@@]2(O)[C@H]3Cc4ccc(O)cc4[C@@]2(CCN3CC2CC2)C1
recorded measurement: 7.76
--
smiles input: CN1CC[C@]23c4c5ccc(O)c4O[C@H]2[C@]2(CC[C@@]3(O)[C@H]1C5)O[C@H]1CO[C@@H]3N1[C@H]2O[C@]31CC[C@@]2(O)[C@H]3Cc4ccc(O)c5c4[C@@]2(CCN3C)[C@H]1O5
recorded measurement: 25.3

Below is a list of compounds. For each, state its recorded Ratio Ki.
1. Oc1ccc2c3c1O[C@H]1[C@]4(CC[C@@]5(O)[C@@H](C2)N(CC2CCC2)CC[C@]315)O[C@H]1CO[C@@H]2N1[C@H]4O[C@]21CC[C@@]2(O)[C@H]3Cc4ccc(O)c5c4[C@@]2(CCN3CC2CCC2)[C@H]1O5
2. Oc1ccc2c3c1O[C@@H]1[C@]34CCN(CC3CC3)[C@H](C2)[C@]4(O)CC[C@@]12C=N[C@@H]([C@]1(O)CC[C@@]3(O)[C@H]4Cc5ccc(O)c6c5[C@@]3(CCN4CC3CC3)[C@H]1O6)O2

1. 19.2
2. 38.4

---

molecular target: Delta-type opioid receptor (Mus musculus, UniProt P32300); test: Displacement of [3H]DPDPE from mouse delta opioid receptor in whole brain without cerebellum
Sequence (P32300 whole entry): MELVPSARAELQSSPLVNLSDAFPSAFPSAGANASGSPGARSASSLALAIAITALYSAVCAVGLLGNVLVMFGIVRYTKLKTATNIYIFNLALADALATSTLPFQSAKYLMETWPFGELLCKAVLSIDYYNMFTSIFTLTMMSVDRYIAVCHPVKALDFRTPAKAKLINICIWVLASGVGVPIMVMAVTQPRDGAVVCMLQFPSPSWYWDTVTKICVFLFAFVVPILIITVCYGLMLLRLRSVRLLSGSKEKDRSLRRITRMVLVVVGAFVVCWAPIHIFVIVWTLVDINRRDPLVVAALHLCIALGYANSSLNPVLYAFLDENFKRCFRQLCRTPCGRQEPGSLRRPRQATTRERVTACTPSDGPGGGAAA
metric name: Ki (nM)
Numbers only, in nM.

Input Oc1ccc2c3c1O[C@H]1[C@]4(CC[C@@]5(O)[C@@H](C2)N(CC2CCC2)CC[C@]315)O[C@H]1CO[C@@H]2N1[C@H]4O[C@]21CC[C@@]2(O)[C@H]3Cc4ccc(O)c5c4[C@@]2(CCN3CC2CCC2)[C@H]1O5 , output reported Ki.
50
